All figures here come from patent US5147876A.

Tested on: mice
Test: Acute toxicity on mice
Format: in vivo
Conditions: 24 hours after administration
Structures can show the parent of a compound that is named as a salt.
Readout: Estimated LD50

Consider the reported Estimated LD50 for these compounds:
1. CN(C(=O)c1ccccc1)c1ccnc(N2CCC(c3ccccc3)CC2)n1 [Compound 170, hydrochloride] ... > 1000 mg/kg, i.p.
2. COCC(=O)N(C)c1ccnc(N2CCC(c3ccccc3)CC2)n1.Cc1ccc(S(=O)(=O)O)cc1 ... 500-1000 mg/kg, i.p.
3. CN(C(=O)c1ccccc1)c1ccnc(N2CCC(c3ccccc3)CC2)n1 [Compound 169] ... > 1000 mg/kg, i.p.

Here's the next entry for you.
Prompt: Recorded Estimated LD50 of CN(C(=O)c1ccc(Cl)cc1Cl)c1ccnc(N2CCC(c3ccccc3)CC2)n1.Cc1ccc(S(=O)(=O)O)cc1 , please.
Completion: > 1000 mg/kg, i.p.
